- Tested on: T47D
- assay-procedure: NCI tumour cell line growth inhibition, 48 h
Calls of active or inactive are those of the source. No stated cut-off is given here; in the data, active = GI50 up to about 1.1 µM and inactive = higher.
measured-metric: GI50

[[record]]
compound = "O=c1ccn(CC2(CO)CCC2)c(=O)[nH]1"
system = "T47D"
result = "> 100 µM (inactive)"

[[record]]
compound = "O=C1/C(=C/c2ccc(Oc3ccccc3)cc2)N=C(c2ccccc2)N1c1ccc(S(=O)(=O)Nc2nccs2)cc1"
system = "T47D"
result = "12.8 µM (inactive)"

[[record]]
compound = "Cc1ccc(S(=O)(=O)NC(=O)NC(CCCCNC(=N)N)C(=O)O)cc1 (stereo not drawn)"
system = "T47D"
result = "> 100 µM (inactive)"

[[record]]
compound = "COc1cc(CO)c(CC(=O)NCCCc2ccccc2)cc1OC"
system = "T47D"
result = "15 µM (inactive)"

[[record]]
compound = "CCOC(=O)C(NC(=O)NCc1ccc(F)cc1)C(F)(F)F (stereo not drawn)"
system = "T47D"
result = "> 100 µM (inactive)"

[[record]]
compound = "CCCCCCCCCCCC(=O)OCC(C[As](=O)(O)O)OC(=O)CCCCCCCCCCC (stereo not drawn)"
system = "T47D"
result = "14.7 µM (inactive)"

[[record]]
compound = "Cn1c(=O)c2c(nc3n2CC(=O)N3CCCCl)n(C)c1=O"
system = "T47D"
result = "> 100 µM (inactive)"

[[record]]
compound = "COc1cc2c(cc1O)CC1c3c(cc(O)c(OC)c3-2)CCN1C (stereo not drawn)"
system = "T47D"
result = "> 100 µM (inactive)"

[[record]]
compound = "COC(=O)C1=C(C)NC(C)=C(C(=O)OC)C1c1cccc(NO)c1"
system = "T47D"
result = "13.5 µM (inactive)"

[[record]]
compound = "O/N=C1/CCCCCC1NO (stereo not drawn)"
system = "T47D"
result = "> 100 µM (inactive)"

[[record]]
compound = "CCOC(=O)N/N=C(/N)c1cccc(Br)c1"
system = "T47D"
result = "> 100 µM (inactive)"

[[record]]
compound = "Cn1c(-c2cccc([N+](=O)[O-])c2)[n+](C)c2ccccc21"
system = "T47D"
result = "> 100 µM (inactive)"

[[record]]
compound = "CCCCC[C@H]1CC=CC(=O)O1"
system = "T47D"
result = "4.55 µM (inactive)"

[[record]]
compound = "CCN(CC)c1ccc(/C=C2/C[N+](C)(C)C/C(=C/c3ccc(N(CC)CC)cc3)C2=O)cc1"
system = "T47D"
result = "2.4 µM (inactive)"

[[record]]
compound = "C=C1CC(C)(COc2ccc3c(C)c(C)c(=O)oc3c2C)OC1=O (stereo not drawn)"
system = "T47D"
result = "1.28 µM (inactive)"

[[record]]
compound = "COc1cc(-c2oc3c(OC)cc(OC)c(O)c3c(=O)c2OC)cc(OC)c1OC"
system = "T47D"
result = "3.76 µM (inactive)"

[[record]]
compound = "CN(C)CC1CCCC1=O (stereo not drawn)"
system = "T47D"
result = "3.65 µM (inactive)"

[[record]]
compound = "CN(C)C(=O)Oc1ccc(C(=S)Nc2ccccc2)cc1Br"
system = "T47D"
result = "25 µM (inactive)"

[[record]]
compound = "CC(=O)[C@@]1(c2ccccc2)CC2(CCN(C)CC2)O[C@H]1C"
system = "T47D"
result = "> 100 µM (inactive)"

[[record]]
compound = "CN(C)CCNc1ccc2nnn3c4ccccc4c(=O)c1c23"
system = "T47D"
result = "6 µM (inactive)"

[[record]]
compound = "Clc1ccc2c(c1)CC1C[N+]3=C(CCCC3)C1=C2 (stereo not drawn)"
system = "T47D"
result = "51.3 µM (inactive)"

[[record]]
compound = "CN(C)Cc1cc(Cl)c(O)c(CN(C)C)c1"
system = "T47D"
result = "> 100 µM (inactive)"

[[record]]
compound = "CCCCCCc1cc2cc(C(=O)Nc3nc(C45CC6CC(CC(C6)C4)C5)cs3)c(=O)oc2cc1O"
system = "T47D"
result = "5.68 µM (inactive)"

[[record]]
compound = "CCCCCCCCCCCCCCCCOP(=O)(O)OP(=O)(O)OCC1OC(n2ccc(N)nc2=O)CC1O (stereo not drawn)"
system = "T47D"
result = "> 100 µM (inactive)"

[[record]]
compound = "COc1ccc(C(=O)/C=C/c2cccnc2)cc1OC"
system = "T47D"
result = "8.45 µM (inactive)"

[[record]]
compound = "N#Cc1sc2c(c1OC(=O)c1ccc(Cl)cc1)c(=O)n(-c1ccccc1)c(=S)n2-c1ccccc1"
system = "T47D"
result = "24.4 µM (inactive)"

[[record]]
compound = "COc1ccc2[nH]cc(C(=O)C(=O)NC34CC5CC(CC(C5)C3)C4)c2c1"
system = "T47D"
result = "54.1 µM (inactive)"

[[record]]
compound = "Cc1ccc(-c2cc(-c3ccc(Cl)cc3)nc(/N=C3\\C(=O)N(CN4CCOCC4)c4ccc(Cl)cc43)n2)cc1"
system = "T47D"
result = "17.3 µM (inactive)"

[[record]]
compound = "C=CC(=O)C#CC#CC/C=C\\CCCCCCC"
system = "T47D"
result = "> 20.6 µM (inactive)"

[[record]]
compound = "Cc1cccc(C)c1NC(=S)NC=C1C(=O)c2ccccc2C1=O"
system = "T47D"
result = "6.17 µM (inactive)"

[[record]]
compound = "CC1=NN2C(=N)/C(=C/c3ccc(F)cc3)C(=O)N=C2S1"
system = "T47D"
result = "> 100 µM (inactive)"

[[record]]
compound = "O=C(O)CC(Cc1ccccc1Cl)C(=O)O (stereo not drawn)"
system = "T47D"
result = "> 100 µM (inactive)"

[[record]]
compound = "O=[N+]([O-])c1cccnc1NCC1(CO)CC(Cc2ccccc2)C1 (stereo not drawn)"
system = "T47D"
result = "> 100 µM (inactive)"

[[record]]
compound = "CCC1CCC2C3CC=C4CC(OC(C)=O)C(N)CC4(C)C3CCC12C (stereo not drawn)"
system = "T47D"
result = "5.78 µM (inactive)"

[[record]]
compound = "CCOC(=O)C(NC(=O)N(C1=NCC(C)S1)C1CCCCC1)(OC)C(F)(F)F (stereo not drawn)"
system = "T47D"
result = "32.5 µM (inactive)"

[[record]]
compound = "C[C@H]1CCC/C=C/[C@@H]2C[C@H](OC3OC(CO)C(O)C(O)C3O)C[C@H]2[C@H](O)/C=C/C(=O)O1 (stereo partly drawn)"
system = "T47D"
result = "> 100 µM (inactive)"

[[record]]
compound = "O=S(=O)([N-]c1nc2ccccc2nc1-[n+]1ccccc1)c1ccccc1"
system = "T47D"
result = "81.8 µM (inactive)"

[[record]]
compound = "O=c1[nH]nc(-c2ccc([N+](=O)[O-])cc2)n1/N=C/c1ccc([N+](=O)[O-])cc1"
system = "T47D"
result = "> 100 µM (inactive)"

[[record]]
compound = "C=C[C@H]1CN2CCc3c([nH]c4c([C@@H]5CCCN5C)c(O)ccc34)[C@@H]2C[C@@H]1C[C@H]1c2[nH]c3ccccc3c2CCN1C"
system = "T47D"
result = "1.95 µM (inactive)"

[[record]]
compound = "COc1ccc([C@@]23CCC(=O)C[C@@H]2N(C)CC3)cc1OC"
system = "T47D"
result = "> 100 µM (inactive)"

[[record]]
compound = "CC1=NN(c2cccc(Cl)c2)C2(C1)C(Cl)C(=O)N2c1nc2ccccc2s1 (stereo not drawn)"
system = "T47D"
result = "26.2 µM (inactive)"

[[record]]
compound = "CN(C)CCO/N=C1/C=C2CC[C@H]3[C@@H]4CC[C@H](O)[C@@]4(C)CC[C@@H]3[C@@]2(C)CC1"
system = "T47D"
result = "23.9 µM (inactive)"

[[record]]
compound = "COc1cc(NCCC(=O)O)c2ncccc2c1"
system = "T47D"
result = "> 100 µM (inactive)"

